# TEST_SYSTEM: aldose reductase (Bos taurus, UniProt P16116)
# Construct: Aldose reductase was prepared by the method of Hayman et al; from tissue
# METHOD_SUMMARY: Inhibition effect on aldose reductase
# Type: biochemical
# EXPERIMENTAL_CONDITIONS: Table 5; read-out: ID50 (concentration of 50% inhibition on aldose reductase)
ASSAY_METRIC: IC50 (nM)
Express the result in nM but write the number alone.

Need IC50, item CC1(C)CC2(NC(=O)NC2=O)c2cc(Cl)ccc2O1 (stereo not shown)
1000

Can you share its IC50? I mean this molecule: CC1CC2(NC(=O)NC2=O)c2cc(F)ccc2O1 (stereo not shown)
500

Given the molecule CC1(C)CC2(NC(=O)NC2=O)c2cc(F)ccc2O1 (stereo not shown) , what is its reported IC50?
2000

Consider the molecule CC1CC2(NC(=O)NC2=O)c2cc(Cl)ccc2O1 (stereo not shown) and give its measured IC50.
400

###

# System: sorbitol accumulation in the lens and the sciatic nerve
# METHOD_SUMMARY: Reduction or inhibition of sorbitol accumulation in the lens and the sciatic nerve of streptozotocin-induced diabetic rats
# Format: in vivo, rat
# EXPERIMENTAL_CONDITIONS: sciatic nerve; 1 mg/kg oral, 4, 8 and 25 h after streptozotocin; vs no compound
ASSAY_METRIC: Inhibition of sorbitol accumulation (%)
// note: answer is a bare numeric in %

Which Inhibition of sorbitol accumulation is listed for CC1CC2(NC(=O)NC2=O)c2cc(F)ccc2O1 (stereo not shown) ?
100

Which Inhibition of sorbitol accumulation is listed for CC1(C)CC2(NC(=O)NC2=O)c2cc(Cl)ccc2O1 (stereo not shown) ?
86

What measured Inhibition of sorbitol accumulation goes with CC1(C)CC2(NC(=O)NC2=O)c2cc(F)ccc2O1 (stereo not shown) ?
33

So what does the record say about Inhibition of sorbitol accumulation for O=C1NC(=O)C2(CCOc3ccc(F)cc32)N1 (stereo not shown) [reference compound] ?
15

###

# TEST_SYSTEM: aldose reductase (Bos taurus, UniProt P16116)
# Construct: Aldose reductase was prepared by the method of Hayman et al; from tissue
# METHOD_SUMMARY: Inhibition effect on aldose reductase
# Type: biochemical
# EXPERIMENTAL_CONDITIONS: 3 × 10^-6 (M)
ASSAY_METRIC: Inhibition on aldose reductase (%)
Only the number, expressed in %, is required.

Give its Inhibition on aldose reductase value. Item: CC1(C)CC2(NC(=O)NC2=O)c2cc(Cl)ccc2O1 (centres unmarked)
79

# query: Inhibition on aldose reductase of entry CC1(C)CC2(NC(=O)NC2=O)c2cc(F)ccc2O1 (centres unmarked)
70

Which Inhibition on aldose reductase reading was recorded for the compound O=C1NC(=O)C2(CCOc3ccc(F)cc32)N1 (centres unmarked) [reference compound] ?
78

// query Inhibition on aldose reductase value for entry CC1CC2(NC(=O)NC2=O)c2cc(F)ccc2O1 (centres unmarked)
91

Which Inhibition on aldose reductase reading was recorded for the compound CC1CC2(NC(=O)NC2=O)c2cc(Cl)ccc2O1 (centres unmarked) ?
92

###

# Test system: sorbitol accumulation in the lens and the sciatic nerve
# METHOD_SUMMARY: Reduction or inhibition of sorbitol accumulation in the lens and the sciatic nerve of streptozotocin-induced diabetic rats
# Format: in vivo, rat
# EXPERIMENTAL_CONDITIONS: sciatic nerve; 10 mg/kg oral, 4, 8 and 25 h after streptozotocin; vs no compound
ASSAY_METRIC: Inhibition of sorbitol accumulation (%)
Just the number in %, nothing appended.

Can you look up Inhibition of sorbitol accumulation on sorbitol accumulation in the lens and the sciatic nerve for CC1(C)CC2(NC(=O)NC2=O)c2cc(Br)ccc2O1 (centres unmarked) ?
100

Give Inhibition of sorbitol accumulation (sorbitol accumulation in the lens and the sciatic nerve) of the following compound: O=C1NC(=O)C2(CCOc3ccc(F)cc32)N1 (centres unmarked) [reference compound]
88

Query the reported Inhibition of sorbitol accumulation for sorbitol accumulation in the lens and the sciatic nerve; item: CC1CC2(NC(=O)NC2=O)c2cc(Cl)ccc2O1 (centres unmarked)
82

Write down the reported Inhibition of sorbitol accumulation of CC1CC2(NC(=O)NC2=O)c2cc(F)ccc2O1 (centres unmarked) , test system: sorbitol accumulation in the lens and the sciatic nerve.
100

Notebook: pull reported Inhibition of sorbitol accumulation for sorbitol accumulation in the lens and the sciatic nerve, entry CC1(C)CC2(NC(=O)NC2=O)c2cc(F)ccc2O1 (centres unmarked)
93

sorbitol accumulation in the lens and the sciatic nerve / Inhibition of sorbitol accumulation / CC1(C)CC2(NC(=O)NC2=O)c2cc(Cl)ccc2O1 (centres unmarked) : value?
100

GET /values?readout=Inhibition of sorbitol accumulation&system=sorbitol accumulation in the lens and the sciatic nerve&item= CC1Oc2ccc(Cl)cc2C12NC(=O)NC2=O (centres unmarked)
45

Find Inhibition of sorbitol accumulation (sorbitol accumulation in the lens and the sciatic nerve) for the entry CC1(C)CC2(NC(=O)NC2=O)c2cc(Cl)cc(Cl)c2O1 (centres unmarked)
55
